- Assay procedure: NCI Yeast Anticancer Drug Screen. Data for the mlh1 rad18 strain (AID 175)
- Test conditions: S. cerevisiae mlh1 rad18 strain growth inhibition; at 50.0 µM; hits give high values
About 79,000 compounds went through this panel and 15% of them were active in at least one assay; those are over-represented in the sample as a whole.
Reported growth inhibition values are given for each entry in this list.
Enter your answer as a number in %; do not include the unit.

Molecule	Result unit	growth inhibition
Clc1ccc(-c2ccccc2)cc1Cl	%	1.9
CC(=O)O[C@H]1CC[C@]2(C)C3=C([C@@H](OO)C[C@H]2C1(C)C)[C@]1(C)CC[C@H]([C@H](C)CCCC(C)C)[C@@]1(C)CC3	%	25.3
O=c1[nH]c(=O)c2[nH]c(N=Nc3ccc(N(CCCl)CCCl)cc3)nc2[nH]1	%	17.6
COP(=O)(Cc1ccc(/C=C/C#N)o1)OC	%	-10.2
NC(=O)C(N)C(F)c1ccccc1 (stereo not given)	%	16.8
Clc1ccc(C(c2ccccc2Cl)C(Cl)(Cl)Cl)cc1 (stereo not given)	%	12.2
CCC1CCC2CCCC(C)N12 (stereo not given)	%	7.75
C=CC1CC=CCC1 (stereo not given)	%	-11.9

Q: # input molecule: CC1C(C)(C)P(=O)(Oc2ccc3ccccc3c2)C1(C)C (stereo not given) ; wanted: its growth inhibition
Result: 56.6

Q: Next molecule up: COc1ccc2c(c1)C1(C)CCN(CCc3ccccc3)C(C2)C1C (stereo not given)
Result: 24.4

###

Reported growth inhibition values are given for each entry in this list.
- Assay procedure: NCI Yeast Anticancer Drug Screen. Data for the cln2 rad14 strain (AID 165);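 further: 0% = growth equal to vehicle treated cultures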
- Test conditions: S. cerevisiae cln2 rad14 strain, at 50.0 µM, hits give high values
The panel holds about 79,000 compounds, 15% with a hit somewhere; the sample as a whole holds those more often.
Enter your answer as a number in %; do not include the unit.

Worked set:
Compound	growth inhibition (%)
CC1=C(Cl)C=CP(=O)(Oc2ccccc2)C1 (configuration not stated)	29.2
N=C(N)N.[O]=[Cr](=[O])([OH])[OH]	10.6
O=c1[nH]cnc2c1ncn2-c1ccc(N(CCCl)CCCl)cc1	-20.5
CCCCCC(C)C1C(=O)NC(=O)NC1=O (configuration not stated)	5.7
Oc1cc(Cl)ccc1Cl	96.5
COC(=O)CN(C)P(=O)(N1CC1)N1CC1	-10.2

Then this compound:
Q: # input compound: CCN1CCC2OCOC2C1 (configuration not stated) ; wanted: its growth inhibition
Result: 0.5

###

- Assay procedure: NCI Yeast Anticancer Drug Screen. Data for the rad50 strain (AID 155);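 further: 0% = growth of vehicle-only cultures of the same strain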
- Test conditions: S. cerevisiae rad50 strain growth inhibition; at 50.0 µM; hits give high values
This is part of a sample that, as a whole, favours compounds with a hit. Of some 79,000 tested, about 15% had one in any assay.
Reported growth inhibition values are given for each entry in this list.
Enter your answer as a number in %; do not include the unit.

Molecule	Measurement
COc1ccc2[nH]cc(/C=C\[N+](=O)[O-])c2c1	6
O=S1(=O)CC2(N3CCOCC3)C3CCC(C3)C21 (stereo unspecified)	24
[Cl][Sn]1([Cl])[CH2]CCCCCC[CH2][Sn]([Cl])([Cl])[CH2]CCCCCC[CH2]1	26.4

Q: # input molecule: `N=c1nc(N)n2c(N)nc(=N)n12` ; wanted: its growth inhibition
Result: 19.9

Q: Next molecule up: `O=C(O)C(Oc1nc(=S)[nH]c(=S)[nH]1)(c1ccc(Cl)cc1)c1ccc(Cl)cc1`
Result: -1.5

Q: Next molecule up: `CCCCCCNC(=O)CBr`
Result: 34.6

Q: Next molecule up: `Nc1ccc(N)cc1`
Result: 10.9

###

- Assay procedure: NCI Yeast Anticancer Drug Screen. Data for the rad50 strain (AID 155);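 further: 0% = growth of vehicle-only cultures of the same strain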
- Test conditions: S. cerevisiae rad50 strain growth inhibition; at 50.0 µM; hits give high values
The panel holds about 79,000 compounds, 15% with a hit somewhere; the sample as a whole holds those more often.
Measure name: growth inhibition (%)
Enter your answer as a number in %; do not include the unit.

Worked set:
Compound	Result unit	growth inhibition
CCC(=O)[O][Sn]([CH3])([CH3])[O][Sn]([CH3])([CH3])[O]C(=O)CC	%	-2.55
C=C1OC(OC)CC(N=[N+]=[N-])C1O (stereo unspecified)	%	-14.1
O=C(CC(O)C(Cl)(Cl)Cl)CC(O)C(Cl)(Cl)Cl (stereo unspecified)	%	15
Cn1cnc([N+](=O)[O-])c1[Se]c1nc(N)nc2nc[nH]c12	%	-24.1

Q: # input compound: COC(=O)C1C(O)CC2CCC1[N+]2(C)C (stereo unspecified) ; wanted: its growth inhibition
Result: 3.3

Q: Next compound up: `Cn1c2c(c3ccccc31)CCN1OCC=C[C@@H](C(=O)O)[C@@H]21`
Result: -8.3

###

Reported growth inhibition values are given for each entry in this list.
- Assay procedure: NCI Yeast Anticancer Drug Screen. Data for the rad50 strain (AID 155);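 further: 0% = growth of vehicle-only cultures of the same strain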
- Test conditions: S. cerevisiae rad50 strain growth inhibition; at 50.0 µM; hits give high values
About 79,000 compounds went through this panel and 15% of them were active in at least one assay; those are over-represented in the sample as a whole.
Enter your answer as a number in %; do not include the unit.

Worked set:
Compound	Measurement
N#CC(C#N)=Cc1ccc(C=C(C#N)C#N)cc1	-30.4
CCOC(=O)C1C(c2ccco2)C2(C#N)C(=N)OC1(C)C2(C#N)C#N (centres undefined)	3.45
FC(F)(F)c1ccc(Cl)c(NC2=NCCCS2)c1	-7.85
CCCCC(CC)CC1C(=O)NC(=S)NC1=O (centres undefined)	-3.7
COC(=O)C1=COC(C)[C@H]2CN3CCc4c([nH]c5cc(OC)ccc45)C3CC12 (some centres undefined)	-0.6

Q: # input compound: `CCCCCCCCCCCCCCCCS(=O)(=O)c1ccc(S(=O)(=O)F)cc1NC(=O)C(F)(F)F` ; wanted: its growth inhibition
Result: -22.4

Q: Next compound up: `N#CCC#N`
Result: -3.7

Q: Next compound up: C[C@]12CC[C@H](OC(=O)Cc3ccc(N(CCCl)CCCl)cc3)CC1CC[C@@H]1C2CC[C@]2(C)NC(=O)CCC12 (some centres undefined)
Result: 0.1

Q: Next compound up: `O=S1(=O)OCCOS(=O)(=O)C1(Cl)Cl`
Result: -32.6

Q: Next compound up: `Cc1ccc(OP(=O)(Oc2ccc(C)cc2)Oc2ccc(C)cc2)cc1.Cc1ccc(OP(=O)(Oc2ccc(C)cc2)Oc2ccc(C)cc2)cc1.Cc1ccc(OP(=O)(Oc2ccc(C)cc2)Oc2ccc(C)cc2)cc1.Cc1ccc(OP(=O)(Oc2ccc(C)cc2)Oc2ccc(C)cc2)cc1.[O-][Cl+3]([O-])([O-])O.[Zn+2]`
Result: 3.45

Q: Next compound up: `O=C1CN=C(c2ccccc2)c2ccncc2N1`
Result: 4.15

Q: Next compound up: `Cc1nnn[n-]1.N.N.N.N.N.[Cl-].[Co+3]`
Result: 3.15

Q: Next compound up: COC1C(OC(=O)c2ccc(C)[nH]2)C(O)C(Oc2ccc3c(O)c(NC(=O)c4ccc(O)c(CC=C(C)C)c4)c(=O)oc3c2Cl)OC1(C)C (centres undefined)
Result: 44.2

Q: Next compound up: CC(CCl)N1CCCCCC1 (centres undefined)
Result: -14.3

Q: Next compound up: COc1cc(C(O)CN)cc(OC)c1OC (centres undefined)
Result: -12.9

Q: Next compound up: `NNN1CCN(N)CC1`
Result: 11.1

Q: Next compound up: `Cc1c[nH]cn1.Cc1c[nH]cn1.Cc1c[nH]cn1.Cc1c[nH]cn1.Cc1c[nH]cn1.Cc1c[nH]cn1.N#CS.[Mn+2]`
Result: 6.1

Q: Next compound up: CC(C)(O)[C@H]1[C@@H]2OC(=O)[C@H]1[C@]1(O)C[C@H]3OC34C(=O)O[C@H]2[C@@]41C (some centres undefined) (tested in a mixture with another compound)
Result: 1.05

Q: Next compound up: Cc1ccc(S(N)(=O)=O)cc1 (tested in a mixture with another compound)
Result: 14.9

###

- Assay procedure: NCI Yeast Anticancer Drug Screen. Data for the sgs1 mgt1 strain (AID 161);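 further: 0% = growth of cultures given vehicle only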
- Test conditions: S. cerevisiae sgs1 mgt1 strain, at 50.0 µM
The panel holds about 79,000 compounds, 15% with a hit somewhere; the sample as a whole holds those more often. Active and inactive are the calls of the source. Rule as the data show it: active = growth inhibition above about 70%; inactive = the rest.
Thanks in advance; please answer with one of these: active, inactive

Molecule	Answer label
COc1ccccc1CN1CCN(Cc2ccccc2OC)C1c1ccc(N(CCCl)CCCl)cc1	inactive
COC(=O)c1ccccc1NC(C)=O	inactive
O=C(COc1ccc(Cl)c(Cl)c1)Nc1ccc[n+](CC(=O)Nc2ccc(S(=O)(=O)F)cc2)c1	inactive
Cc1ccc(NC(=O)C(=O)C2C(=O)NC(=O)NC2=O)c(C)c1	inactive
COc1cc(C)c(C(CC(=O)O)CC(=O)N(CCCl)CCCl)cc1C(C)C (stereo unspecified)	inactive
NP(=O)(OCCC(OCc1ccccc1)OCc1ccccc1)N(CCCl)CCCl (stereo unspecified)	inactive
Cc1cc(C)c(C#N)c(SSC(Cl)(Cl)Cl)n1	inactive
O=C(CCN1CC=C(c2ccccc2)CC1)c1ccc(F)cc1	active

Q: Recorded test outcome, item C(=C\C1CC2CCCN2O1)/c1ccccc1 (stereo unspecified)
Result: inactive

Q: Next molecule up: CCCOC(C(=O)OC1CCC2CCC1N2C)(c1ccccc1)c1ccccc1 (stereo unspecified)
Result: inactive

Q: Next molecule up: `O=C(/C=C/c1ccccc1)CCC1C(=O)NC(=S)NC1=O`
Result: inactive

The measurements presented in this section are drawn from PubChem BioAssay (NCI).
